target: human MRGPRX2 (Homo sapiens, UniProt Q96LB1); assay: Ca2+ mobilization assay (FLIPR TETRA): inhibition of Cortistatin-14 mediated MRGPRX2 activation
Readout Label: IC50

Parameter requested: IC50. Apply to each item below.
1. C[C@@H](C(=O)Nc1ccc(Cl)cn1)N1CCC[C@@H](c2c[nH]c(=O)c(CN)c2)C1 (single isomer, unassigned)
2. C[C@@H](C(=O)Nc1ccc(Oc2ncc(F)cc2F)cn1)[C@H]1CCC[C@@H](c2cc[n+]([O-])cc2)C1
3. C[C@@H](C(=O)Nc1ccc(OCC2CC2)cn1)N1CCC[C@@H](c2ccc(=O)[nH]n2)C1 (single isomer, unassigned)

3160 to 31600 nM
10 to 100 nM
100 to 3160 nM

Parameter requested: IC50. Apply to each item below.
1. C[C@@H](C(=O)Nc1ccc(OCC2CC2)nn1)N1CCC(F)(F)[C@@H](c2c[nH]c(=O)c(N)c2)C1
2. C[C@@H](C(=O)Nc1ccc(Oc2ccc(F)cc2F)cn1)N1CCC(F)(F)[C@@H](c2c[nH]c(=O)c([C@H](N)C(F)(F)F)c2)C1 (single isomer, unassigned)
3. CC(C(=O)Nc1ccc(Cc2nccs2)cn1)N1CCC(F)(F)[C@@H](c2ccc(=O)[nH]c2)C1 (stereo partly drawn)

10 to 100 nM
≤ 10 nM
100 to 3160 nM

* * *

Target: human MRGPRX2 (Homo sapiens, UniProt Q96LB1)
Sequence (Q96LB1 1-330): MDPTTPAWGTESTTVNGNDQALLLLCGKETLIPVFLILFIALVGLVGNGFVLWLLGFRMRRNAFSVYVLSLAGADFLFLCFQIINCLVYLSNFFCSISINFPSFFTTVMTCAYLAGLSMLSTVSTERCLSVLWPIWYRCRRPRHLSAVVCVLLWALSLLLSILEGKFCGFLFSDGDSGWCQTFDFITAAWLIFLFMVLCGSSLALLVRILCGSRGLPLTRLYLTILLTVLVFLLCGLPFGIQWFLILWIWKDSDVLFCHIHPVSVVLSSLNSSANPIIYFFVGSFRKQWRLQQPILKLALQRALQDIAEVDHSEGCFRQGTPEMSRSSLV
Experiment: Ca2+ mobilization assay (FLIPR TETRA): inhibition of Cortistatin-14 mediated MRGPRX2 activation
pIC50: −log10 of the molar value.
For each entry below, report its pIC50 value.

Please review the entries below; each comes with its answer.
C[C@@H](C(=O)Nc1ccc(OCC2CC2)cn1)N1CCC(F)(F)[C@@H](c2c[nH]c(=O)c(N)n2)C1	7.00 to 8.00
C[C@@H](C(=O)Nc1ccc(Cc2ccccc2)cn1)N1CCC(F)(F)[C@@H](c2ccc(=O)[nH]c2)C1	≥ 8.00
C[C@@H](C(=O)Nc1ccc(OCC2CC2)cn1)N1CCC(F)(F)[C@@H](c2ccc(=O)[nH]c2)C1	7.00 to 8.00
CC(C(=O)Nc1ccc(Oc2ccc[nH]c2=O)cn1)N1CCC(F)(F)[C@@H](c2ccc(=O)[nH]c2)C1 (some centres unmarked)	7.00 to 8.00
CC(C(=O)Nc1ccc(OCC2CC2)cn1)N1CC(c2ccc(=O)[nH]c2)C(F)(F)C1 (centres unmarked)	5.50 to 7.00

Parameter requested: pIC50. Apply to each item below.
1. C[C@@H](C(=O)Nc1ccc(OCC2CC2)nn1)N1CCC(F)(F)[C@@H](c2c[nH]c(=O)c(N)n2)C1 (single isomer, unassigned)
2. Cc1cc([C@@H]2CCCN([C@@H](C)C(=O)Nc3ccc(Cl)cn3)C2)c[nH]c1=O (single isomer, unassigned)
3. C[C@@H](C(=O)Nc1ccc(OCC2CC2)nn1)N1CCC(F)(F)[C@@H](c2c[nH]c(=O)c([C@H](O)C(F)(F)F)c2)C1 (single isomer, unassigned)
4. C[C@@H](C(=O)Nc1ccc(OCC2CC2)cn1)[C@H]1CCC(F)(F)[C@@H](c2ccc(=O)[nH]c2)C1 (single isomer, unassigned)
5. C[C@@H](C(=O)Nc1ccc(Oc2ncccc2F)cn1)N1CCC(F)(F)[C@@H](c2ccc(=O)[nH]c2)C1
6. C[C@@H](C(=O)Nc1ccc(Oc2ccc(F)cn2)cn1)[C@H]1CCC(F)(F)[C@@H](c2ccc(=O)[nH]c2)C1
7. CC(C(=O)Nc1ccc(-c2ccon2)cn1)N1CCC(F)(F)[C@@H](c2ccc(=O)[nH]c2)C1 (some centres unmarked)
8. C[C@@H](C(=O)Nc1ccc(F)cn1)N1CCC(F)(F)[C@@H](c2c[nH]c(=O)c(N)n2)C1

["≥ 8.00", "4.50 to 5.50", "≥ 8.00", "≥ 8.00", "7.00 to 8.00", "≥ 8.00", "4.50 to 5.50", "7.00 to 8.00"]

Endpoint output: pIC50 of C[C@@H](C(=O)Nc1ccc(OCC2CC2)cn1)N1CCC(F)(F)[C@@H](c2cc[n+]([O-])cc2)C1 . Value?
7.00 to 8.00
